All figures here come from PubChem BioAssay (NCI).

Measured growth, listed per entry.
System: RPMI-8226 leukemia
MEASUREMENT DESCRIPTION: NCI-60 one-dose screen, 48 h (100 = growth as untreated, 0 = no growth, -100 = all killed)
PROTOCOL CONDITIONS: 10 µM unless noted
Description: Growth inhibition of the RPMI-8226 human tumor cell line is measured as a screen for anti-cancer activity. Cells are grown in 96 well plates and exposed to the test compound for 48 hours. Compounds are tested at a single concentration, which is 10^-5 M for most compounds. The reported endpoint is percent growth (GI% or GIPRCNT), where numbers from 0 - 100% represent growth inhibition, and numbers from -100% - 0 represent cell death. For example, a value of 40 represents 60% growth inhibition. […]
This is part of a sample that, as a whole, favours compounds with a hit. Of some 83,000 tested, about 20% had one in any assay.
OBSERVED PROPERTY: growth (%)

COMPOUND: Cc1ccc(C2C3CC4CCCCC4N3[C@@]3(C(=O)Nc4cc(Cl)ccc43)C2C(=O)c2nc3ccccc3[nH]2)cc1 (stereo not given in full)
OBSERVED PROPERTY: growth
RESULT UNITS: %
VALUE MEASURED: 9.27
//
COMPOUND: COc1ccc(C2CC(c3cccc(Nc4ccncc4)c3)=NN2c2cc(Cl)cc(Cl)c2)cc1 (stereo not given)
OBSERVED PROPERTY: growth
RESULT UNITS: %
VALUE MEASURED: 14.9
//
COMPOUND: Cc1ccccc1-c1cc(Cc2ccc(F)cc2)c(=O)[nH]n1
OBSERVED PROPERTY: growth
RESULT UNITS: %
VALUE MEASURED: 50.9
//
COMPOUND: COc1ccccc1/C=C1\Oc2cc(OCCCN3CCCC3)ccc2C1=O
OBSERVED PROPERTY: growth
RESULT UNITS: %
VALUE MEASURED: 107
//
COMPOUND: CN1C2CCC1CN(c1cnc(C(=O)Nc3cc(F)cc4cccnc34)cn1)C2
OBSERVED PROPERTY: growth
RESULT UNITS: %
VALUE MEASURED: 44.5
//
COMPOUND: O=C(/C=C/c1ccc[nH]1)c1ccc(-n2ccc(C(F)(F)F)n2)cc1
OBSERVED PROPERTY: growth
RESULT UNITS: %
VALUE MEASURED: -19.3
//
COMPOUND: O=C(N/N=C/c1cccnc1)c1ccccc1Nc1cccc(C(F)(F)F)c1
OBSERVED PROPERTY: growth
RESULT UNITS: %
VALUE MEASURED: 71.1
//
COMPOUND: CCCc1cc2c(cc1Br)OCO2
OBSERVED PROPERTY: growth
RESULT UNITS: %
VALUE MEASURED: 113
//
COMPOUND: COc1ccc2c(Nc3ccc(NS(C)(=O)=O)cc3)c3ccccc3nc2c1
OBSERVED PROPERTY: growth
RESULT UNITS: %
VALUE MEASURED: 1.1
//
COMPOUND: CCCCN(CCCC)CCc1c(C)cc(C)c(CCN(CCCC)CCCC)c1O
OBSERVED PROPERTY: growth
RESULT UNITS: %
VALUE MEASURED: 1.92
